Tested on: U251
Test Name: Inhibition of tumor cell growth
Format: cell-based
Applied Conditions: U-251; U251, human glioblastoma; 48 hour treatment; means ± SD, n=3
Quantity Kind: IC50 (µM)
Answers are plain numbers, in µM.

[Q] Look up IC50 of CNC(=O)c1cc(Oc2ccc(NC(=O)c3cccc(OC)c3)cc2)ccn1 and report it.
[A] 6.5

* * *

Test Name: Pharmacokinetics in male wistar rats
Type: in vivo
Applied Conditions: male, Wistar, rat, plasma, po, P.O. 50 mg/kg, means ± SD, n=6
Quantity Kind: AUC(0-inf) (ng·h/mL)
Numbers only, in ng·h/mL.

[Q] Let me know recorded AUC(0-inf) for CNC(=O)c1cc(Oc2ccc(NC(=O)c3cccc(OC)c3)cc2)ccn1 , thanks.
[A] 83300

* * *

Test system: A375
Test Name: Inhibition of tumor cell growth
Format: cell-based
Applied Conditions: A-375; A375, human melanoma; 48 hour treatment; means ± SD, n=3
Quantity Kind: pIC50
One number for each entry, as −log10 of the molar value.

[Q] Indicate its recorded pIC50; the molecule in question is CNC(=O)c1cc(Oc2ccc(NC(=O)c3cccc(OC)c3)cc2)ccn1 [YLT192]
[A] 4.91

* * *

Test system: A431
Test Name: Inhibition of tumor cell growth
Type: cell-based
Applied Conditions: A-431; A431, human pidermoid carcinoma; 48 hour treatment; means ± SD, n=3
Quantity Kind: pIC50
One number for each entry, as −log10 of the molar value.

[Q] Return the recorded pIC50 value; entry: CNC(=O)c1cc(Oc2ccc(NC(=O)c3cccc(OC)c3)cc2)ccn1
[A] 5.11

* * *

Test Name: Pharmacokinetics in male wistar rats
Format: in vivo
Applied Conditions: male, Wistar, rat, plasma, po, 50 mg/kg, P.O. 50 mg/kg, means ± SD, n=6
Quantity Kind: half-life (h)
Give bare numbers, in h.

[Q] # return recorded half-life for entry CNC(=O)c1cc(Oc2ccc(NC(=O)c3cccc(OC)c3)cc2)ccn1 [YLT192]
[A] 9.1

* * *

Test Name: Pharmacokinetics in male wistar rats
Assay type: in vivo
Applied Conditions: male, Wistar, rat, plasma, iv, 20 mg/kg, I.V. 20 mg/kg, means ± SD, n=6
Quantity Kind: half-life
Remember to follow the number with its unit.

[Q] Tell me its half-life given CNC(=O)c1cc(Oc2ccc(NC(=O)c3cccc(OC)c3)cc2)ccn1 as the entry.
[A] 4.1 h

* * *

Test Name: Pharmacokinetics in male wistar rats
Assay type: in vivo
Applied Conditions: male, Wistar, rat, plasma, iv, I.V. 20 mg/kg, means ± SD, n=6
Quantity Kind: AUC(0-inf) (ng·h/mL)
Give bare numbers, in ng·h/mL.

[Q] Indicate the recorded AUC(0-inf) value for this compound: CNC(=O)c1cc(Oc2ccc(NC(=O)c3cccc(OC)c3)cc2)ccn1 [YLT192]
[A] 65900

* * *

Tested on: DU145
Test Name: Inhibition of tumor cell growth
Assay type: cell-based
Applied Conditions: DU-145; DU145, human prostate cancer; 48 hour treatment; means ± SD, n=3
Quantity Kind: IC50

[Q] Please look at this molecule and report its IC50: CNC(=O)c1cc(Oc2ccc(NC(=O)c3cccc(OC)c3)cc2)ccn1
[A] 22.8 µM

* * *

Test Name: Pharmacokinetics in male wistar rats
Assay type: in vivo
Applied Conditions: male, Wistar, rat, plasma, iv, I.V. 20 mg/kg, means ± SD, n=6, read-out: Vz
Quantity Kind: Vd (L/kg)
Answers are plain numbers, in L/kg.

[Q] Give the value of Vd reported for the following: CNC(=O)c1cc(Oc2ccc(NC(=O)c3cccc(OC)c3)cc2)ccn1
[A] 1.79
